ASSAY SYSTEM: T1, huROR1-His (human ROR1 ECD AA30-406 with C-terminal His tag, made in house) (human, UniProt Q01973 30-406)
T1 construct: range 30-406; Expressed in HEK293; also called antigen protein huROR1-His; not shown: C-terminal His tag
T1 sequence (Q01973 30-406 limits assumed): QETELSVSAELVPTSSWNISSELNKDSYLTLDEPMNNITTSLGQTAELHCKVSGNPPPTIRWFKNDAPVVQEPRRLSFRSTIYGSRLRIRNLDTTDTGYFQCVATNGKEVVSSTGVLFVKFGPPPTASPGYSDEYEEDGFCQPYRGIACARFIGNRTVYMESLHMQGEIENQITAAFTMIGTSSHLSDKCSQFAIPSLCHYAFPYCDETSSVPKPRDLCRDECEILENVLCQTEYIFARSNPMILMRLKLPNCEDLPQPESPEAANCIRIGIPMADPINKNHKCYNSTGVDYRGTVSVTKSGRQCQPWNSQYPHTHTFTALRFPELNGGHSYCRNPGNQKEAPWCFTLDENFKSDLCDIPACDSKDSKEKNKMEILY
TEST DESCRIPTION: Gator (BLI) Advanced Kinetics; antibody 30 nM, huROR1-His 480-7.5 nM
Property: koff; scope: individual binders
Lab book: enter the figure in s⁻¹, no units written.

Tell me the measured koff of C42 (chimeric antibody) (antibody, human IgG1, kappa, V domains shown, ExpiCHO expression) VH: EVMLVESGGGLVKPGGSLKLSCAASGFTFSNYIMSWVRQTPEKRLEWVATINSGGTNTYYPDSVKGRFTISRDNAKNSLYLQMNSLRSEDTALYYCTRYNGNYVWFAYWGQGTLVTVSA VL: DIVLTQSPAIMSASPGEKVTMTCSASSSVSFIYWYQQKPGSSPRLLIYDTSNLASGVPVRFSGSGSGTSYSLTISRMEAEDAATYYCQQWSNYHFTFGSGTKLEIKR , please.
0.00325

New cases:
Quick one: koff of M78 (chimeric antibody) (antibody, human IgG1, kappa, V domains shown, ExpiCHO expression) VH: EVMLVESGGGLVRPGGSLKLSCAASGFTFSSYAMSWVRQSPEKRLEWVASINRGGTTYYPDSVKGRFTISRDNARDILYLQMSSLRSEDTAIYYCARDYYYGSNLYNGMDYWGQGTSVIVSS VL: DIKITQSPSSMYASLGERVTITCKASQDINSYLSWFQQKPGKSPKTLIYRANRLVDGVPSRFSGSGSGQDYSLTISSLEYEDMGIYYCLQFDEFPYTFGGGTKLEIKR ?
0.000614

Let us now turn to B32 (chimeric antibody) (antibody, human IgG1, kappa, V domains shown, ExpiCHO expression) VH: EVKLMESGGGLVKPGGSLKLSCAASGFAFSSYAMSWVRQTPDKRLEWVASINRDVTTYYPDSMKGRFTISRDNARNILYLQMSSLRSEDTAMYYCARGYYYGGGPYWHFDVWGAGTTVTVSS VL: DIQITQSPSSMYASLGERVTITCKASQDINSYLTWFQQKPGKSPKTLIYRANRLVDGVPSRFSGSGSGQDYSLTISSLEYEDMGIYYCLQFDEFPYTFGGGTKLEIKR
0.000377

Just for reference, patent US20250177546A1 is where these values come from.
